target: hERBB2 (Homo sapiens, UniProt P04626); construct: purchased DiscoverX; test: KINOMEscan; type: binding
Sequence (P04626 23-1255): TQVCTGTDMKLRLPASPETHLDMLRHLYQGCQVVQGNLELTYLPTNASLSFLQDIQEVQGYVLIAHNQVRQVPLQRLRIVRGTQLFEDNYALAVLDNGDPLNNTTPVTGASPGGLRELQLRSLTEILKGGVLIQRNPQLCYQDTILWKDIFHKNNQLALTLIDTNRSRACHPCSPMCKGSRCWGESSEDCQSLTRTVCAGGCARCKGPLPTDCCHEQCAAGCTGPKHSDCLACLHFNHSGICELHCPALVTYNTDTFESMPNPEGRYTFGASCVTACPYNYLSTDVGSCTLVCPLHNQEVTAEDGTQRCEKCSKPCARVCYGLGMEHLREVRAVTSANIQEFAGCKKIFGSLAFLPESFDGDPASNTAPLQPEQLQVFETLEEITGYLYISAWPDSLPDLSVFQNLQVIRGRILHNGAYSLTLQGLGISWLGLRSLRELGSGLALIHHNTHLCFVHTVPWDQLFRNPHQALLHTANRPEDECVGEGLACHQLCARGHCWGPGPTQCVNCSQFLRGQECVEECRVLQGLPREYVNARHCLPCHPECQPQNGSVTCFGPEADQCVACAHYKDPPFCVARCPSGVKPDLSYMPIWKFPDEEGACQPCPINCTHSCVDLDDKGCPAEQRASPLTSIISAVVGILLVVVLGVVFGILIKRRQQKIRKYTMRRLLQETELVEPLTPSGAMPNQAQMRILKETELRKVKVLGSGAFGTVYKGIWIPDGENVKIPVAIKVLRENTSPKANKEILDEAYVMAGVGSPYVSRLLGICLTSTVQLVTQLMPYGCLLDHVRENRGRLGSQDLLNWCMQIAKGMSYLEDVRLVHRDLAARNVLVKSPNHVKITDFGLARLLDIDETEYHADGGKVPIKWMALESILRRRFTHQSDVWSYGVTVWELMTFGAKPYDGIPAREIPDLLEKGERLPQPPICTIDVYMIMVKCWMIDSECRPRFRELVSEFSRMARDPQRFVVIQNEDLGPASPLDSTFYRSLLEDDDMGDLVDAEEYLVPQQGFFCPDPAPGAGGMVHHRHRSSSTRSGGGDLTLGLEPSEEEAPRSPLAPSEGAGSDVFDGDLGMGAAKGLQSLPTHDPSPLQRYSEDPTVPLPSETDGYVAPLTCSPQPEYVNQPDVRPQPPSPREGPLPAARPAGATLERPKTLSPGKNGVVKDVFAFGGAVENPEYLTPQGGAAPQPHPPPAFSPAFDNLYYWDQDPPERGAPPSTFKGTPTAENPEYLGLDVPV
pIC50: −log10 of the molar value.
endpoint.name: pIC50

# molecule, endpoint.name, value
measured = [
    ("Cc1cn(CCN2CCN(c3ccccc3-c3cc(C#N)cc(C(=O)NCCCN4CCCC4)c3)CC2)c2ccccc12 [LLY-507]", "pIC50", "< 4.70"),
]

###

Molecular target: hTLK1 (Homo sapiens, UniProt Q9UKI8)
Sequence (Q9UKI8 1-766): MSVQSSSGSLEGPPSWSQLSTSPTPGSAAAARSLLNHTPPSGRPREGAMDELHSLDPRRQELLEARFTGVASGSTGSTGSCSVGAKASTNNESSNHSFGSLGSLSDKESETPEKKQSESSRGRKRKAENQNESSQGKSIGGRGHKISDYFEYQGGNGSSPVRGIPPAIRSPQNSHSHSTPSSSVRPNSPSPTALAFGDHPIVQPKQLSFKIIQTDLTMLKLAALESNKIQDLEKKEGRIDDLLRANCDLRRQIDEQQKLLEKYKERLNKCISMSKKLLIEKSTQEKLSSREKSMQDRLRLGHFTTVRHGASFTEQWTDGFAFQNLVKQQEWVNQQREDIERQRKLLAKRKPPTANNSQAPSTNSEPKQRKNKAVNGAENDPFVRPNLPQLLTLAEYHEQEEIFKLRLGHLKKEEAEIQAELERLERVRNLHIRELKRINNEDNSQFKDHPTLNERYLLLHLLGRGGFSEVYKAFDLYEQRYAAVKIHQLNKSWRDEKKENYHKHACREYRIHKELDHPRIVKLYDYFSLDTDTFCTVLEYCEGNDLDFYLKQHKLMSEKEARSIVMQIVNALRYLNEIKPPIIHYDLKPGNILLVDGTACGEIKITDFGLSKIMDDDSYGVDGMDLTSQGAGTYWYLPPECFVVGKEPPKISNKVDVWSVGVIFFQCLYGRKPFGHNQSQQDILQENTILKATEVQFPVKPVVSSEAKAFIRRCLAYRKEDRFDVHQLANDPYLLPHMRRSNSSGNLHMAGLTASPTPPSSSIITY
pIC50: −log10 of the molar value.
endpoint.name: pIC50

# smiles.code, value
rows = [
    ("Cc1cn(CCN2CCN(c3ccccc3-c3cc(C#N)cc(C(=O)NCCCN4CCCC4)c3)CC2)c2ccccc12", "< 4.70"),
]

###

Molecular target: hBMPR2 (Homo sapiens, UniProt Q13873)
Sequence (Q13873 27-1038): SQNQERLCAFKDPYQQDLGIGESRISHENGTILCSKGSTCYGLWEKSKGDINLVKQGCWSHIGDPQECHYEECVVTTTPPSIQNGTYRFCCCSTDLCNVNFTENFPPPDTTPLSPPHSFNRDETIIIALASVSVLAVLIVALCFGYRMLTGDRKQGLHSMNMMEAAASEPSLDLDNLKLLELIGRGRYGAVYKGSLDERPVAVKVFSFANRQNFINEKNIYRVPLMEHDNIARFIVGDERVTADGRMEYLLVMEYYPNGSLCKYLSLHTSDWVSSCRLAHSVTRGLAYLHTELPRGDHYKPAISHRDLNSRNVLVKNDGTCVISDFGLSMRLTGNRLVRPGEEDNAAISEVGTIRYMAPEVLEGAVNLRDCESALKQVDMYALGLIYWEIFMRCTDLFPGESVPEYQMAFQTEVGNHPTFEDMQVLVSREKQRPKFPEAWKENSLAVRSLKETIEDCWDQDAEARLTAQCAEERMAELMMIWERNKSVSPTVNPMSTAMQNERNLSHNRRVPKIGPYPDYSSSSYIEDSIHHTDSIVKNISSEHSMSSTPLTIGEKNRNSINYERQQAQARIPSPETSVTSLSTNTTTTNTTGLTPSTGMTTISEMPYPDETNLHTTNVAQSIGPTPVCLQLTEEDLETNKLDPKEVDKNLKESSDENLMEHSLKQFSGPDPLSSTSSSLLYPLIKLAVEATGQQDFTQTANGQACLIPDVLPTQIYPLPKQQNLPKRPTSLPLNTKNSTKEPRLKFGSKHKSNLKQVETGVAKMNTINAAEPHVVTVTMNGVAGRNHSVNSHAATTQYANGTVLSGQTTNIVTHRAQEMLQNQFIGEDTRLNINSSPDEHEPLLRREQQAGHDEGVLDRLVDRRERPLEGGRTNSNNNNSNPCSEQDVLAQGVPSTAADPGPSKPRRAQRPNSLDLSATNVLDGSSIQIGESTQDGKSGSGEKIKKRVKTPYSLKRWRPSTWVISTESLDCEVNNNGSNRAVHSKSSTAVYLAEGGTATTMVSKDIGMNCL
pIC50: −log10 of the molar value.

# smiles.code, pIC50
data = [
    ("Cc1cn(CCN2CCN(c3ccccc3-c3cc(C#N)cc(C(=O)NCCCN4CCCC4)c3)CC2)c2ccccc12", "< 4.70"),
]
